B1: Androgen receptor, residues 557 to 632; numbered along this chain, P10275 (parent)
chain: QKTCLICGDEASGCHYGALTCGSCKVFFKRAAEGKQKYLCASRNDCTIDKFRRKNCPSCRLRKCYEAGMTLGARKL

variants of: B1; experiment: abundance fitness (aPCA) (normalised: wild type 0, dead -1); higher = more abundant; growth selection in yeast, the domain comes from the species named; details: Homo sapiens
observable: abundance fitness
Give bare numbers.

The examples below pair each entry with its known result.
R52E    -0.003
E33D    -0.066
T47L    -0.041
P57T    -0.111
A31V    -0.128
F27T    -0.91
C46E    -0.542
S23Q    -0.084
K50P    -0.007
K35D    -0.118

Give me abundance fitness for each of these variants, listed below.
1. K63Y
2. C24A
3. C14Q
4. T3Q
5. L19Q

-0.704
-0.96
-0.133
-0.04
0.059

Quick one: give me abundance fitness for each item below, same order please.
1. P57K
2. L71I
3. A73D

-0.043
-0.021
-0.026

Query (variant): A18D ; field requested: abundance fitness
-0.232
